Test system: HCC-2998 colon
PROTOCOL TEXT: NCI tumour cell line growth inhibition, 48 h
This listing pairs compounds with measured log10 TGI.
MEASURED ENDPOINT: log10 TGI (log10 of the value in µM)

[
  {
    "COMPOUND": "COc1cc(-c2cc3ncccc3c3nc(OCCN(C)C)c4cccnc4c23)cc(OC)c1OC",
    "MEASURED ENDPOINT": "log10 TGI",
    "ASSAY VALUE": 0.49
  },
  {
    "COMPOUND": "Cc1ccccc1NC(=O)Cc1csc(N/N=C2\\NC(=O)/C(=C/c3cccc([N+](=O)[O-])c3)S2)n1",
    "MEASURED ENDPOINT": "log10 TGI",
    "ASSAY VALUE": 1.44
  },
  {
    "COMPOUND": "O=C(c1ccccc1)C(Cl)C(Cl)c1ccccc1 (configuration not stated)",
    "MEASURED ENDPOINT": "log10 TGI",
    "ASSAY VALUE": 0.55
  },
  {
    "COMPOUND": "Nn1c(Nc2ccc(S(N)(=O)=O)cc2)nnc(/C=C/c2c(O)ccc3ccccc23)c1=O",
    "MEASURED ENDPOINT": "log10 TGI",
    "ASSAY VALUE": 1.72
  },
  {
    "COMPOUND": "CNC(=O)c1nn(C)c2c1C(C)(C)Cc1cnc(Nc3cccc(N4CCN(C)CC4)c3)nc1-2",
    "MEASURED ENDPOINT": "log10 TGI",
    "ASSAY VALUE": 1.17
  },
  {
    "COMPOUND": "Oc1c(C(Nc2ccccn2)c2cccc(Oc3ccccc3)c2)ccc2cccnc12 (configuration not stated)",
    "MEASURED ENDPOINT": "log10 TGI",
    "ASSAY VALUE": 1.51
  },
  {
    "COMPOUND": "N[C@H]1c2c(Br)sc(Br)c2C(=O)[C@H]1O",
    "MEASURED ENDPOINT": "log10 TGI",
    "ASSAY VALUE": 1.44
  },
  {
    "COMPOUND": "NC(=O)c1cccc2c(N[C@H](CN3CCC3)c3ccc(Cl)c(C(F)(F)F)c3)ncnc12",
    "MEASURED ENDPOINT": "log10 TGI",
    "ASSAY VALUE": 0.46
  },
  {
    "COMPOUND": "COc1cc(C2S/C(=C/c3ccccc3)C(=O)N2Cc2ccccc2)cc(OC)c1OC (configuration not stated)",
    "MEASURED ENDPOINT": "log10 TGI",
    "ASSAY VALUE": 1.84
  },
  {
    "COMPOUND": "COc1ccc(-c2cc(/C=C3\\C(=O)Nc4cc(Cl)ccc43)[nH]n2)cc1",
    "MEASURED ENDPOINT": "log10 TGI",
    "ASSAY VALUE": 1.84
  },
  {
    "COMPOUND": "O=C([O][Hg][c]1ccccc1)c1ccccc1",
    "MEASURED ENDPOINT": "log10 TGI",
    "ASSAY VALUE": 0.58
  }
]

---

Tested on: MOLT-4 leukemia
PROTOCOL TEXT: NCI tumour cell line growth inhibition, 48 h
This listing pairs compounds with measured TGI.

[
  {
    "COMPOUND": "O=C(CCBr)N1CCN(C(=O)CCBr)CC1",
    "OP": "=",
    "TGI [µM]": 215
  },
  {
    "COMPOUND": "Cc1ccc(S(=O)(=O)N2CCC[C@@H]2C(=O)O[C@@H]2CCC3CC=CC32)cc1 (stereo not given in full)",
    "OP": ">",
    "TGI [µM]": 100
  },
  {
    "COMPOUND": "O=[N+]([O-])c1ccc(/C=C/c2nc3ccc(Cl)cc3[nH]2)cc1",
    "OP": ">",
    "TGI [µM]": 100
  },
  {
    "COMPOUND": "c1ccc2c(c1)SC(=C1Sc3ccccc3S1)S2",
    "OP": ">",
    "TGI [µM]": 100
  },
  {
    "COMPOUND": "CN1CCN(Cc2ccc(NC(=O)c3cncc(C#Cc4c(N)ncc5ccc(C#N)cc45)c3)cc2C(F)(F)F)CC1",
    "OP": "=",
    "TGI [µM]": 2.96
  },
  {
    "COMPOUND": "COc1ccc(-c2cc(/C=C3\\C(=O)Nc4cc(Cl)ccc43)[nH]n2)cc1",
    "OP": ">",
    "TGI [µM]": 100
  },
  {
    "COMPOUND": "CC(=O)c1ccccc1NC(=O)C(=O)C(C(=O)c1ccc2ccccc2c1)C1OC(=O)c2ccccc21 (stereo not given)",
    "OP": ">",
    "TGI [µM]": 100
  },
  {
    "COMPOUND": "COC(=O)Nc1nc2ccc(S(=O)(=O)Nc3ccccn3)cc2[nH]1",
    "OP": "=",
    "TGI [µM]": 64
  },
  {
    "COMPOUND": "CCOC(=O)c1[nH]cc(C)c1-c1cccn1-c1ccc(Cl)cc1[N+](=O)[O-]",
    "OP": "=",
    "TGI [µM]": 46.4
  },
  {
    "COMPOUND": "COc1ccccc1NC(=S)N=Nc1c(O)[nH]c2ccccc12",
    "OP": ">",
    "TGI [µM]": 100
  }
]
